# Tested on: K-562 leukemia
# experimentalDetails: NCI-60 one-dose screen, 48 h (100 = growth as untreated, 0 = no growth, -100 = all killed)
# assayConditions: 10 µM unless noted
Compounds without any hit were thinned out: in the full panel of roughly 83,000, 20% have a hit.
quantityName: growth (%)
# value in %; strip the unit string

Reported growth of C/C(=N\NC(=O)Cn1c(-c2ccc(S(C)(=O)=O)cc2)nc2cc(Cl)ccc21)c1ccc(Cl)cc1 : 62.9

Reported growth of O=C(Oc1ccc([N+](=O)[O-])cc1)c1ccc(CBr)cc1 : 86.7

Reported growth of CN1CCN(c2ccc3nc(/N=C/c4ccc5sc(-c6ccc([N+](=O)[O-])cc6)nc5c4)sc3c2)CC1 : 90.6

Reported growth of CC1(C)N=C(N)N=C(N)N1c1cccc(CN)c1 : 116

Reported growth of CNC1(C#N)CCN(Cc2ccccc2)CC1 : 104

Reported growth of COc1cc(NC(=O)c2cccc(-c3cc(=O)c4c(O)c(OC)c(OC)cc4o3)c2)cc(OC)c1OC : 54.5

Reported growth of NS(=O)(=O)Oc1ccc(NC(=O)C23CC4CC(CC(C4)C2)C3)cc1Cl : 94.6

Reported growth of O=C(CC1Sc2ccccc2NC1=O)NNc1ccc(F)cc1 (stereo not drawn) : 13.6

Reported growth of COc1cc(/C=C/C(=O)c2cccc(-n3cc(-c4ccc(Cl)cc4)[nH]c3=O)c2)cc(OC)c1OC : 20.9

Reported growth of Oc1ccccc1-c1nc2ccccn2c1NCCN1CCOCC1 : 83

Reported growth of C(=C\c1nc2ccccc2[nH]1)/c1nc2ccccc2[nH]1 : 90

Reported growth of O=C1Nc2ccccc2SC1c1ccccc1Cl (stereo not drawn) : 41.2

Reported growth of CCN(CC)CCOC(=O)Nc1ccccc1Cl : 94.8

Reported growth of COc1ccc(C2=NC(=O)NC2c2ccc(OC)cc2)cc1 (stereo not drawn) : 21.2

Reported growth of Clc1cnc(Nc2ccc(OCCN3CCCC3)cc2)nc1NCc1ccco1 : 16.4

Reported growth of COc1ccc(NC(=O)C(=O)c2c[nH]c3ccc(F)cc23)cc1 : 90.6

Reported growth of COc1ccc(/C(C)=C(\c2ccc(Cl)cc2)c2ccc(OCCN(C)C)cc2)cc1F : 3.97

Reported growth of OC(CBr)c1ccnc2ccccc12 (stereo not drawn) : 92

Reported growth of CC(=O)Nc1nccs1 : 110

Reported growth of N#Cc1c(-c2ccccc2)nc(SCC2CO2)nc1N1CCOCC1 (stereo not drawn) : 97.4

Reported growth of COc1ccc(-c2nc3ncccn3c2/C=C/C(=O)c2cc(OC)c(OC)c(OC)c2)cc1 : 6.79

Reported growth of C[C@@H]1C(=O)N(C[C@H](Cc2ccccc2)NC(=O)OCc2ccccc2)[C@]1(Cc1ccccc1)C(=O)OC(C)(C)C : 40.5

Reported growth of CCN(CC)CCOc1ccc(/C(=C(\C)c2ccc(OC)c(F)c2)c2ccc(Cl)cc2)cc1 : 19

* * *

# System: NCI-H23 lung
# experimentalDetails: NCI-60 one-dose screen, 48 h
# assayConditions: 10 µM unless noted
Compounds without any hit were thinned out: in the full panel of roughly 83,000, 20% have a hit. Active and inactive are the calls of the source. The calls were made as follows: active = growth percent below 10; inactive = the rest.
Reply using exactly one outcome from 1 for active, -1 for inactive

Prompt line: Tell me the recorded outcome of this test for CCNCCNc1cc(-c2ccc(F)cc2)c(C#N)c2nc3ccccc3n12 .
Response line: -1

Prompt line: Tell me the recorded outcome of this test for CC(=O)C(C(C)=O)c1nc2sc3cc(Cl)ccc3n2c(=N)c1C#N .
Response line: -1

Prompt line: Tell me the recorded outcome of this test for COc1cc(/C=C/c2nc(Nc3ccc(S(=O)(=O)Nc4cc(C)on4)cc3)c3ccccc3n2)ccc1O .
Response line: -1

Prompt line: Tell me the recorded outcome of this test for O=C(NCOC(O)C(Cl)(Cl)Cl)NCOC(O)C(Cl)(Cl)Cl (configuration not stated) .
Response line: -1

Prompt line: Tell me the recorded outcome of this test for COc1ccc(OC)c(C(=O)Nc2cccc(-c3cc(=O)c4ccccc4o3)c2)c1 .
Response line: -1

Prompt line: Tell me the recorded outcome of this test for C=C1c2c(C)nn(-c3ccc(NC(C)=O)cc3)c2N(C)C23CC1C1(C)c4c(C)nn(-c5ccc(NC(C)=O)cc5)c4N(C)C(C)(CC12)C3 (configuration not stated) .
Response line: -1

Prompt line: Tell me the recorded outcome of this test for COc1ccc(-n2ncn(CCCCCCn3cnn(-c4ccc(OC)cc4)c3=O)c2=O)cc1 .
Response line: -1

Prompt line: Tell me the recorded outcome of this test for CCc1c(C(=O)N[C@@H]2c3cc(Cl)ccc3CC[C@@H]2O)[nH]c(C)c1C(C)=O .
Response line: -1

Prompt line: Tell me the recorded outcome of this test for COc1ccc(C(=O)/C=C/c2cc3c(c(OC)c2)OCC(=O)N3)cc1 .
Response line: -1

Prompt line: Tell me the recorded outcome of this test for CCCc1cc(=O)oc2c3c(c4c(c12)OC(C)(C)C=C4)O[C@@H](C)[C@H](C)C3=O .
Response line: -1

Prompt line: Tell me the recorded outcome of this test for CCn1c(Sc2nnc(NC(=O)CCN3CCCC3)s2)nc2c1c(=O)n(C)c(=O)n2C .
Response line: -1

Prompt line: Tell me the recorded outcome of this test for Cc1c(Cl)cccc1NS(=O)(=O)c1ccccc1 .
Response line: -1

Prompt line: Tell me the recorded outcome of this test for CCN(CC)CCOc1ccc(/C(=C(\C)c2ccc(F)c(OC)c2)c2ccc(Cl)cc2)cc1 .
Response line: -1

Prompt line: Tell me the recorded outcome of this test for CO[C@H]1/C=C/O[C@@]2(C)Oc3c(C)c(O)c4c(c3C2=O)C(=O)C(/C=N/N(c2ccccc2)c2ccccc2)=C(NC(=O)/C(C)=C\C=C\[C@H](C)[C@H](O)[C@@H](C)[C@@H](O)[C@@H](C)[C@H](OC(C)=O)[C@@H]1C)C4=O .
Response line: 1

Prompt line: Tell me the recorded outcome of this test for COc1ccc(NC(=O)C(=O)c2c[nH]c3ccc(F)cc23)cc1 .
Response line: -1

Prompt line: Tell me the recorded outcome of this test for CCCCC1COc2cccc3c(SCC(=O)N(C)c4cccc(Cl)c4)cc[n+]1c23 (configuration not stated) .
Response line: -1

Prompt line: Tell me the recorded outcome of this test for CN1CCC(=C2c3ccccc3C=Cc3ccccc32)CC1 .
Response line: -1

Prompt line: Tell me the recorded outcome of this test for C[C@@H]1C(=O)N(C[C@H](Cc2ccccc2)N(Cc2ccccc2)Cc2ccccc2)[C@]1(Cc1ccccc1)C(=O)OC(C)(C)C .
Response line: -1

Prompt line: Tell me the recorded outcome of this test for O=C1CSC(c2ccccc2)N1c1ccccc1 (configuration not stated) .
Response line: -1

Prompt line: Tell me the recorded outcome of this test for CC1(C)C(=O)/C(=C\c2cccnc2)C[C@]2(C)[C@H]3CC=C4[C@@H]5C[C@@](C)(C(=O)O)CC[C@]5(C)CC[C@@]4(C)[C@]3(C)CC[C@@H]12 .
Response line: -1

Prompt line: Tell me the recorded outcome of this test for COc1cc2ccccc2cc1C(=O)NC(=S)Nc1ccc(-c2nc3ccccc3[nH]2)cc1 .
Response line: -1

Prompt line: Tell me the recorded outcome of this test for CS(=O)(=O)c1ccc(-c2[nH]c3ccc(F)cc3c2/C=N/O)cc1 .
Response line: -1

Prompt line: Tell me the recorded outcome of this test for COc1ccc(-c2cc(-c3ccc(Nc4nc(Nc5ccccc5)nc(Nc5ccc(Cl)cc5)n4)cc3)nc(N)n2)cc1 .
Response line: -1

Prompt line: Tell me the recorded outcome of this test for CSc1nc(N)c(CNC(C)c2ccccc2)c(=O)n1C (configuration not stated) .
Response line: -1

Prompt line: Tell me the recorded outcome of this test for CCOc1ccc(S(=O)(=O)c2ccc(C)cc2)c2c1no[n+]2[O-] .
Response line: -1

Prompt line: Tell me the recorded outcome of this test for C=C1C(=O)O[C@H]2[C@H]1CC/C(COC(=O)/C=C\C(=O)NCc1ccc(Cn3c(=O)sn(-c4ccc(Cl)cc4)c3=O)cc1)=C\CC[C@@]1(C)O[C@@H]21 .
Response line: 1

Prompt line: Tell me the recorded outcome of this test for O=C(Nc1cccc2[nH]c(C(F)(F)F)nc12)c1cc(Cl)ccc1Cl .
Response line: 1

Prompt line: Tell me the recorded outcome of this test for Fc1ccc(Nc2nc(Nc3ccc(-c4nc5ccccc5[nH]4)cc3)c3cn[nH]c3n2)cc1 .
Response line: -1

Prompt line: Tell me the recorded outcome of this test for Cl.[Pt].[c-]1ccccc1-c1ccccn1.c1ccc(P(c2ccccc2)C([PH+](c2ccccc2)c2ccccc2)[PH+](c2ccccc2)c2ccccc2)cc1 .
Response line: 1

Prompt line: Tell me the recorded outcome of this test for NC(=S)N/N=C/C(=O)O .
Response line: -1

Prompt line: Tell me the recorded outcome of this test for CN1C[C@@H](c2ccc(Cl)cc2)[C@]2(NC(=S)N(c3ccc(F)c(Cl)c3)C2=O)[C@@]12C(=O)NC1C=CC(Cl)=C[C@H]12 (some centres not stated) .
Response line: -1

Prompt line: Tell me the recorded outcome of this test for Cc1cc(-c2ccccc2)cc(SC#N)[n+]1[O-] .
Response line: -1

Prompt line: Tell me the recorded outcome of this test for O=C1NCC(=O)N(Cc2ccco2)[C@H]1Cc1ccccc1 .
Response line: -1

Prompt line: Tell me the recorded outcome of this test for O=C(O)CC1Sc2ccccc2NC1=O (configuration not stated) .
Response line: -1

Prompt line: Tell me the recorded outcome of this test for N#C/C(=C\c1ccc(Br)cc1)n1nnc2ccccc21 .
Response line: -1

Prompt line: Tell me the recorded outcome of this test for CC1(C)CC(=O)c2c(ccc(C(=O)C[C@H](N)CO)c2N)O1 .
Response line: -1

Prompt line: Tell me the recorded outcome of this test for CSc1ncc(C)c(Nc2ccc(Cl)cc2)n1 .
Response line: -1
